experiment: IRF3 reporter activation in THP-1 macrophages, cell-based, PMA-stimulated THP-1, luminescence (AID 1053176); conditions: PMA-differentiated THP-1, IRF3 reporter luminescence; stronger effect = higher value
Output: class label from fraction signal. Mapping: low (below -0.006), mid (-0.006 to below -0.003), high (-0.003 or more)

>  <molecule>
COc1cc[nH]c1C=C1C(=O)Nc2ccc(F)c(C#CC3(O)CCOCC3)c21

>  <cat>
low

$$$$

Q: Category of `Cn1cc(C2=C(c3cn(CCCO)c4ccccc34)C(=O)NC2=O)c2ccccc21` , please.
Ans: high

Q: Category of `COc1cc(Nc2nccc(-c3cnn4ncccc34)n2)cc(OC)c1` , please.
Ans: mid

Q: Category of `O=C1NC(=O)C(=Cc2ccc3ncccc3c2)S1` , please.
Ans: high

Q: Category of `NC(=O)c1cccc(Nc2nccc(Nc3cccc(F)c3)n2)c1` , please.
Ans: high

Q: Category of `CC(C)c1ccc2c(N=Nc3ccc(S(N)(=O)=O)cc3)c(O)[nH]c2c1` , please.
Ans: low

Q: Category of `Cn1cc(C2=C(c3cn(C)c4cc(N)ccc34)C(=O)NC2=O)c2ccccc21` , please.
Ans: low

----------
experiment: suppressors of polyglutamine aggregation in yeast, 75Q-TubH (AID 1616); details: S. cerevisiae 75Q-TubH polyglutamine aggregation suppression; stronger effect = higher value
Quick reference for aggregation suppression score among some molecules
Reply briefly: the number, and no unit.

>  <molecule>
Cc1c(OCC(F)(F)F)ccnc1CS(=O)c1nc2ccccc2[nH]1 (stereo not given)

>  <endpoint.label>
aggregation suppression score

>  <recorded.measurement>
-0.00244

$$$$
>  <molecule>
OC(CCN1CCCC1)(c1ccccc1)C1CCCCC1 (stereo not given)

>  <endpoint.label>
aggregation suppression score

>  <recorded.measurement>
1.66

$$$$
>  <molecule>
O=C(CCCN1CC=C(n2c(=O)[nH]c3ccccc32)CC1)c1ccc(F)cc1

>  <endpoint.label>
aggregation suppression score

>  <recorded.measurement>
1.21

$$$$
>  <molecule>
Nc1c2c(nc3ccccc13)CCCC2

>  <endpoint.label>
aggregation suppression score

>  <recorded.measurement>
1.23

$$$$
>  <molecule>
COc1ccc2c(c1)c(CC(=O)O)c(C)n2C(=O)c1ccc(Cl)cc1

>  <endpoint.label>
aggregation suppression score

>  <recorded.measurement>
0.0101

$$$$

Q: Query: aggregation suppression score; subject: `OC(Cn1cncn1)(Cn1cncn1)c1ccc(F)cc1F`
Ans: 0.253

Q: Query: aggregation suppression score; subject: `Cc1ccc(S(=O)(=O)NC(=O)NN2CCCCCC2)cc1`
Ans: 0.918

Q: Query: aggregation suppression score; subject: `CCOC(=O)N1CCC(=C2c3ccc(Cl)cc3CCc3cccnc32)CC1`
Ans: 0.519

Q: Query: aggregation suppression score; subject: CC(CN1c2ccccc2Sc2ccccc21)N(C)C (stereo not given)
Ans: 1.37

Q: Query: aggregation suppression score; subject: `CC(=O)CCCCn1c(=O)c2c(ncn2C)n(C)c1=O`
Ans: 1.44

Q: Query: aggregation suppression score; subject: `CO[C@@]1(NC(=O)Cc2cccs2)C(=O)N2C(C(=O)O)=C(COC(N)=O)CS[C@@H]21`
Ans: 0.182

Q: Query: aggregation suppression score; subject: CC1Cc2ccccc2N1NC(=O)c1ccc(Cl)c(S(N)(=O)=O)c1 (stereo not given)
Ans: 1.3

Q: Query: aggregation suppression score; subject: CCCNC(C)C(=O)Nc1ccccc1C (stereo not given)
Ans: 1.11

Q: Query: aggregation suppression score; subject: CSc1ccc2c(c1)N(CCC1CCCCN1C)c1ccccc1S2 (stereo not given)
Ans: 0.91

Q: Query: aggregation suppression score; subject: `CCCCc1oc2ccccc2c1C(=O)c1cc(I)c(OCCN(CC)CC)c(I)c1`
Ans: -0.303

Q: Query: aggregation suppression score; subject: c1ccc2c(c1)CCCC2C1=NCCN1 (stereo not given)
Ans: 1.06

Q: Query: aggregation suppression score; subject: O=C1CCC(N2C(=O)c3ccccc3C2=O)C(=O)N1 (stereo not given)
Ans: 1.48

Q: Query: aggregation suppression score; subject: `Nc1nc(N)c2nc(-c3ccccc3)c(N)nc2n1`
Ans: 1.34

Q: Query: aggregation suppression score; subject: `CC(=O)OCC[N+](C)(C)C`
Ans: 1.22

----------
test: stimulators of nuclear beta-catenin in C2C12, primary screen, imaging, WNT3A-conditioned medium, mouse C2C12, NPC library (AID 1117326); settings: stimulation, at 2 µM, stronger effect = higher value
Quick reference for nuclear beta-catenin stimulation among some compounds
Quick reminder: number only, in %, skip the unit.

Please review the entries below; each comes with its answer.
>  <compound>
CCCCCCNC(=O)n1cc(F)c(=O)[nH]c1=O

>  <recorded.measurement>
9.5

$$$$
>  <compound>
NCCNc1ccc(NCCN)c2c1C(=O)c1ccncc1C2=O

>  <recorded.measurement>
8.9

$$$$
>  <compound>
O=C(CCN1CCC(c2ccccc2)C1)c1ccc2c(c1)OCCO2 (stereo not given)

>  <recorded.measurement>
0.5

$$$$
>  <compound>
Cc1cn([C@H]2C[C@H](N=[N+]=[N-])[C@@H](CO)O2)c(=O)[nH]c1=O

>  <recorded.measurement>
1.3

$$$$
>  <compound>
CC(CC1c2ccccc2CCc2ccccc21)CN(C)C (stereo not given)

>  <recorded.measurement>
0.4

$$$$

Q: Query: nuclear beta-catenin stimulation; subject: `O=C1CC(c2ccc(Cl)cc2)CC(=O)N1`
Ans: -2.3

Q: Query: nuclear beta-catenin stimulation; subject: `CCCCCCCCCCCCCCCCCCO`
Ans: -0.4

Q: Query: nuclear beta-catenin stimulation; subject: `CCCCCCCCOc1ccc(C(=O)c2ccccc2)c(O)c1`
Ans: 0.6

Q: Query: nuclear beta-catenin stimulation; subject: `CCOC(=O)c1ccc(OCCN2C[C@H](O)[C@@H](O)[C@H](O)[C@H]2CO)cc1`
Ans: 0.9

Q: Query: nuclear beta-catenin stimulation; subject: FC1(F)C(F)(F)C(F)(F)C2(F)C(F)(F)C(F)(F)C(F)(F)C(F)(F)C2(F)C1(F)F (stereo not given)
Ans: 0.3

Q: Query: nuclear beta-catenin stimulation; subject: `CCCc1ncc(C(=O)O)s1`
Ans: -1.2

Q: Query: nuclear beta-catenin stimulation; subject: `N#C[C@H]1C[C@H]2C[C@@H]2N1C(=O)[C@@H](N)C12CC3CC(CC(O)(C3)C1)C2`
Ans: 1.1

----------
assay: rescue of polyQ-huntingtin neuronal dysfunction in worms, whole organism, C. elegans mechanosensory neurons, N-terminal huntingtin (AID 1599); conditions: touch response, stronger effect = higher value
Entries with a potency or affinity are not part of this list.
endpoint.label: rescue above control

Please review the entries below; each comes with its answer.
>  <compound>
NS(=O)(=O)c1cc2c(cc1Cl)NCNS2(=O)=O

>  <recorded.measurement>
7.5

$$$$
>  <compound>
CN(C)CCN(Cc1ccccc1)c1ccccn1

>  <recorded.measurement>
2.67

$$$$
>  <compound>
COc1cc(NC(C)CCCN)c2ncccc2c1 (configuration not stated)

>  <recorded.measurement>
0

$$$$
>  <compound>
CCN(CCO)CCCC(C)Nc1ccnc2cc(Cl)ccc12 (configuration not stated)

>  <recorded.measurement>
-3.82

$$$$

Q: Query: rescue above control; subject: CC(C[N+](C)(C)C)OC(N)=O (configuration not stated)
Ans: 20.6

Q: Query: rescue above control; subject: `CO[C@@]1(NC(=O)Cc2cccs2)C(=O)N2C(C(=O)O)=C(COC(N)=O)CS[C@@H]21`
Ans: -4.75

Q: Query: rescue above control; subject: `CCCCNC(=O)NS(=O)(=O)c1ccc(C)cc1`
Ans: -3.14

----------
assay: modulators of glucocorticoid suppression of NF-kB, cell-based, luciferase, IL-1B stimulus, dexamethasone (AID 624486); details: NF-kB luciferase reporter, IL-1B + dexamethasone, luminescence; measured here: IL-1B alone, no Dex
endpoint.label: z-score
Reply briefly: the number, and no unit.

>  <compound>
Cn1cc(C2=C(c3cccc(OCC(O)CO)c3)C(=O)NC2=O)c2cc(F)ccc21 (stereo not drawn)

>  <recorded.measurement>
0.67

$$$$
>  <compound>
Cn1cc(C2=C(c3cccc([N+](=O)[O-])c3)C(=O)NC2=O)c2ccccc21

>  <recorded.measurement>
-2.63

$$$$
>  <compound>
Cn1cc(C2=C(c3cn(CCCCCO)c4ccccc34)C(=O)NC2=O)c2ccccc21

>  <recorded.measurement>
-1.23

$$$$

Q: Query: z-score; subject: `CCn1c(-c2nonc2N)nc2cncc(C(=O)NCCNC)c21`
Ans: -0.865

Q: Query: z-score; subject: COc1ccc(-c2cc(C3CNNC3c3ccccn3)ccn2)cc1 (stereo not drawn)
Ans: 1.42

Q: Query: z-score; subject: `O=C1NC(=NCc2ccccc2)SC1=Cc1ccc2ncccc2c1`
Ans: -0.26

Q: Query: z-score; subject: `CSc1c(C2=C(c3cn(C)c4ccccc34)C(=O)NC2=O)c2ccccc2n1C`
Ans: 0.45

Q: Query: z-score; subject: `c1cc(-c2cnn3nc(N4CCOCC4)ccc23)nc(NC2CC2)n1`
Ans: -2.65

Q: Query: z-score; subject: `NC(=O)CCc1ccccc1Oc1nccc(-c2c(-c3ccc(F)cc3)ncn2C2CCNCC2)n1`
Ans: 0.275

Q: Query: z-score; subject: `Cn1c(=O)c(Sc2ccccc2F)cc2cnc(NC3CCOCC3)nc21`
Ans: 0.685

Q: Query: z-score; subject: `COc1cc(/C=N/Nc2ncnc3c2cnn3C(C)C)ccc1O`
Ans: 0.145

Q: Query: z-score; subject: `Cc1[nH]nc2c1N=C(c1ccccc1Cl)c1cc([N+](=O)[O-])ccc1N2`
Ans: -1.15

Q: Query: z-score; subject: `NS(=O)(=O)c1cccc(-c2ccc3c(NC(=O)C4CC4)n[nH]c3c2)c1`
Ans: 0.225

Q: Query: z-score; subject: `NS(=O)(=O)c1ccc(N=Nc2c(O)[nH]c3ccc(C(=O)NCCc4cnc[nH]4)cc23)cc1`
Ans: -0.045
